Reported MFI by item:
- STUDY TARGET: T1, human GPRC5D (human, UniProt Q9NZD1 1-345)
- T1 construct: whole, on cells; also called hGPRC5D; G-protein coupled receptor family C group 5 member D
- T1 sequence (Q9NZD1 whole entry): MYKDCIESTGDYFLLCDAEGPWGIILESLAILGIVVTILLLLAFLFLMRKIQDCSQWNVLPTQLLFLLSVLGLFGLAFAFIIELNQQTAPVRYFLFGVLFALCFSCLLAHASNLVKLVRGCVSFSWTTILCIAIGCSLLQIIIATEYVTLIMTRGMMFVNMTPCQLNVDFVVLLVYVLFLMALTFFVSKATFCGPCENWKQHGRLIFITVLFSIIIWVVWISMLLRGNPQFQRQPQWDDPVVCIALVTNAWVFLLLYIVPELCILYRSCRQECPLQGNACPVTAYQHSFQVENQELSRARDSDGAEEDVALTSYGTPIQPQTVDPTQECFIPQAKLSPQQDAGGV
- TEST: FACS, HEK293T-hGPRC5D cells
The reply should be a number, written without any unit.

binder="20C4E1 (antibody, V domains shown, Mouse monoclonal antibody from hybridoma subclone) VH: EVRLVESGGALVRPGGSLKLSCAASGFTFSDYGMHWVRQAPEKGLEWIAFISSVSFTIYYADTVKGRFTISRDNAKNTLFLQMTSLRSEDTALYYCTRLGPHWYFDVWGTGTTVTVSS VL: DVVLTQTPLSLPVSLGDQASISCRSSQSLVYSNGNTYLHWFLQKPGQSPQLLIYKVSNRFSGVPDRFSGSGSGTDFTLKISRVEAEDLGVYFCSQSTPVPTFGGGTKLEIK" measurement_type=MFI observed_measurement=38900
binder="82A1C10 (antibody, V domains shown, Mouse monoclonal antibody from hybridoma subclone) VH: QVQLKESGPGLVAPSQSLSITCTVSGFSLTNYAVTWVRQPPGKGLEWLGVIWGDGSTYYHSALVSRLSITKDNSRTQVLLKLNSLQTDDTARYYCAKGGYSPFAYWGQGTLVTVSA VL: DVVMTQTPLSLPVSLGDQASISCRSSQSLVHSNGNTYLHWYLQKPGQSPKLLIFKVSNRFSGVPDRFSGSGSGTDFTLKISRVEAEDLGVYFCSQNTHVPFTFGSGTKLEIK" measurement_type=MFI observed_measurement=8090
binder="116G1G4 (antibody, V domains shown, Mouse monoclonal antibody from hybridoma subclone) VH: EVQLQQSGPELVKPGASVKMSCKASGYTFTYYIMHWVKQEPGQGLQWIGYINPYNDGAYYSARFKGKATLTSDKSSSTAYMDLTSLTSEDSAVYYCARGGVRRYFDVWGAGTTVTVSS VL: DIQMTQSPSSLSASLGERVILTCRASQDIGSNLIWLQQKPDGTIKRLIYATFNLDSGVSKRFSGSRSGSDYSLTISSLDSEDFVDYYCLQYASSPYTFGGGTKLEIK" measurement_type=MFI observed_measurement=6050
binder="108C4C12 (antibody, V domains shown, Mouse monoclonal antibody from hybridoma subclone) VH: EVQLQQSGPELVKPGASVKMSCKASGYTFTSYVIHWVKQKTGQGLEWIGYFNPYNDGTKYNEEFKGKATLTSDKSSNTAYMELNSLTSDDSAVYFCARGGVRRYFDVWGAGTTVTVSS VL: DIQMTQSPSSLSASLGERVSLTCRASQDIGSNLNWLQQEPDGTIKRLIYATFGLDSGVPKRFSGSRSGSDYSLTISSLESEDFVDYYCQQYASFPYTFGGGTKLEIK" measurement_type=MFI observed_measurement=5010

Q) Identify the reported MFI for the following entry. 15D6G2 (antibody, V domains shown, Mouse monoclonal antibody from hybridoma subclone) VH: EVQLVESGGDLVKPGGYLRLSCAASGFTFSSHGMSWVRQTPDKRLEWVATISSGGRNTYYPDSVKGRFTISRDNAKNILYLQMSSLKSEDTAMFYCTRHSGDAMDYWGQGTSVTVSS VL: DILLTQSPAILSVSPGERVSFSCRASQSIGTNIHWYQQRTNGSPRLLIKYASESISGIPSRFSGSGSGTDFTLSINSVESEDIADYYCQQSKSWPTFGGGTKLEIK
A) 32800
